test_description: Plasma protein binding in dog at 2 to 50 uM
Format: ADME, cell-free, Canis lupus familiaris
stated_conditions: dose 2-50 µM, read-out: PPB (converted)
quantity_kind: fraction unbound at up to 50 µM

{"smi": "CC(=O)N[C@@H](CC(C)C)C(=O)N[C@H](C(=O)N[C@@H](Cc1ccccc1)C(=O)N[C@]1(C)CCCCCC/C=C/CCC[C@@](C)(C(=O)N[C@@H](C)C(=O)N[C@@H](C)C(=O)N[C@@H](C)C(=O)N[C@@H](C)C(=O)N[C@@H](C)C(=O)N[C@H](C)C(N)=O)NC(=O)[C@H](CC(C)C)NC(=O)[C@H](CCC(N)=O)NC(=O)[C@H](C)NC(=O)[C@H](Cc2c[nH]c3ccccc23)NC(=O)[C@H](Cc2ccc(O)cc2)NC(=O)[C@H](CCC(=O)O)NC1=O)[C@@H](C)O", "quantity_kind": "fraction unbound at up to 50 µM", "value": 0.08}

====

test_description: Toxicity in rat assessed as NOAEL administered twice weekly for 4 weeks
stated_conditions: in vivo
quantity_kind: NOAEL at 672 h (mg/kg)

{"smi": "CC(=O)N[C@@H](CC(C)C)C(=O)N[C@H](C(=O)N[C@@H](Cc1ccccc1)C(=O)N[C@]1(C)CCCCCC/C=C/CCC[C@@](C)(C(=O)N[C@@H](C)C(=O)N[C@@H](C)C(=O)N[C@@H](C)C(=O)N[C@@H](C)C(=O)N[C@@H](C)C(=O)N[C@H](C)C(N)=O)NC(=O)[C@H](CC(C)C)NC(=O)[C@H](CCC(N)=O)NC(=O)[C@H](C)NC(=O)[C@H](Cc2c[nH]c3ccccc23)NC(=O)[C@H](Cc2ccc(O)cc2)NC(=O)[C@H](CCC(=O)O)NC1=O)[C@@H](C)O", "quantity_kind": "NOAEL at 672 h", "readout_unit": "mg/kg", "value": 2.5}

====

test_description: Plasma protein binding in rat at 250 uM
Type: ADME, cell-free
stated_conditions: read-out: PPB (converted)
quantity_kind: fraction unbound at 250 µM

{"smi": "CC(=O)N[C@@H](CC(C)C)C(=O)N[C@H](C(=O)N[C@@H](Cc1ccccc1)C(=O)N[C@]1(C)CCCCCC/C=C/CCC[C@@](C)(C(=O)N[C@@H](C)C(=O)N[C@@H](C)C(=O)N[C@@H](C)C(=O)N[C@@H](C)C(=O)N[C@@H](C)C(=O)N[C@H](C)C(N)=O)NC(=O)[C@H](CC(C)C)NC(=O)[C@H](CCC(N)=O)NC(=O)[C@H](C)NC(=O)[C@H](Cc2c[nH]c3ccccc23)NC(=O)[C@H](Cc2ccc(O)cc2)NC(=O)[C@H](CCC(=O)O)NC1=O)[C@@H](C)O", "value": 0.02}

====

test_description: Half life in plasma of athymic nu/nu mouse xenografted with human SJSA-1 cells at 25 mg/kg, iv measured for 24 hrs by LC-MS-MS analysis
Type: ADME, organism-based
quantity_kind: half-life (h)

{"smi": "CC(=O)N[C@@H](CC(C)C)C(=O)N[C@H](C(=O)N[C@@H](Cc1ccccc1)C(=O)N[C@]1(C)CCCCCC/C=C/CCC[C@@](C)(C(=O)N[C@@H](C)C(=O)N[C@@H](C)C(=O)N[C@@H](C)C(=O)N[C@@H](C)C(=O)N[C@@H](C)C(=O)N[C@H](C)C(N)=O)NC(=O)[C@H](CC(C)C)NC(=O)[C@H](CCC(N)=O)NC(=O)[C@H](C)NC(=O)[C@H](Cc2c[nH]c3ccccc23)NC(=O)[C@H](Cc2ccc(O)cc2)NC(=O)[C@H](CCC(=O)O)NC1=O)[C@@H](C)O", "value": 2.8}
